Every entry's value here was drawn from paper PMC9936582.

# Measured target: Pin1 (Homo sapiens, UniProt Q13526)
# Sequence (Q13526 52-163 limits assumed): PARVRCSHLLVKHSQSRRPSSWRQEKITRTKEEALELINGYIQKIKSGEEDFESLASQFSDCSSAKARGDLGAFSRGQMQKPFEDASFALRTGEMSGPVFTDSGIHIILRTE
Measured quantity: Ki (µM)
Value expressed in µM; do not type the unit.

Lookup: Under Pin1 (Homo sapiens, UniProt Q13526): Ki value of CC(C)(C)CN(C(=O)CCl)C1CCS(=O)(=O)C1 (stereo not shown) [sulfopin, reference compound] ?
Found: 217

###

Readings of labeling of Pin1 for the listed molecules
# Measured target: Pin1 (Homo sapiens)
# Construct: The catalytic domain of Pin1 (2 μM) in […] and 75 mM NaCl (pH 7.5) was incubated; made in house
# Experimental details: Intact protein MS labeling of Pin1
# Type: binding
# Measurement conditions: 2 μM Pin1, 2 μM compound, pH 7.5, 1 h, 25 °C
# Description: Initially, we incubated these compounds (4a–4g; 2 μM) with Pin1 (2 μM; 50 mM Tris buffer; pH 7.5, 1 h; 25 °C) to check covalent labeling by intact protein MS (Figure 5B,C; Figure S23). […] The reaction mixtures, at room temperature for various times, were injected into the LC/MS. […] The labeling percentage for a compound was determined as the labeling of a specific compound (alone or together with other compounds) divided by the overall detected protein species.

>>> recorded_measurement("O=C(COS(=O)(=O)Nc1ccccc1)N(CC1CCCCC1)C1CCS(=O)(=O)C1 (stereo not shown)")
"> 95%"
>>> recorded_measurement("CC(C)(C)CN(C(=O)COS(=O)(=O)Nc1ccccc1)C1CCS(=O)(=O)C1 (stereo not shown)")
"> 90%"

# context switch: different molecule, same labeling of Pin1
Lookup: I'd like to know its labeling of Pin1. The molecule in question is CC(C)(C)CN(C(=O)COS(=O)(=O)Nc1ccc(Br)cc1)C1CCS(=O)(=O)C1 (stereo not shown)
Found: > 90%
